Where do the numbers come from? From ChEMBL document CHEMBL1201862.

Target: Heat shock factor protein 1 (Mus musculus)
Sequence (P38532 whole entry): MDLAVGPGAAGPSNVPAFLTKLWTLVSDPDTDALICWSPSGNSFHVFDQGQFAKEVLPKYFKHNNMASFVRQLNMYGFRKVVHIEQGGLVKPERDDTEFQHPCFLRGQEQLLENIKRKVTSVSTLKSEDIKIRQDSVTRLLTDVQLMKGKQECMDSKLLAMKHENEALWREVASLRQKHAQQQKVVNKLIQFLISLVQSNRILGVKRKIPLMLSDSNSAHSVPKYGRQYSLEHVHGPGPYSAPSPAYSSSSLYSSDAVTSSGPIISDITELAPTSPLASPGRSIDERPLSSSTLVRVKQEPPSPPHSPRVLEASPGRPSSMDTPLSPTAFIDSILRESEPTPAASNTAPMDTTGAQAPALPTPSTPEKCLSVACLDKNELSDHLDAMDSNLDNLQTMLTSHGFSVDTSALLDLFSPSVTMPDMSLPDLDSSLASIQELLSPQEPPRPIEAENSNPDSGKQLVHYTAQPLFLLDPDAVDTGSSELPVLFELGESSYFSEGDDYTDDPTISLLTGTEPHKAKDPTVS
Experiment: inhibition of MG132-induced HSE-luciferase signal, confirmation, cell-based, NIH3T3, luminescence, dose retest (AID 2382);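 further: NIH3T3 fibroblasts with HSF1-driven luciferase reporter stressed by proteasome inhibitor MG132; luminescence from HSF1-driven luciferase expression after 8 hours of MG132 stress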
Assay type: functional
Active and inactive are the calls of the source.
experimental_endpoint: EC50

QUERY: Would you kindly share the measured EC50 for "CN1CCN(c2nc(-c3ccc(C(C)(C)C)cc3)nc3ccccc23)CC1" ?
RESULT: 0.328 µM (active)

QUERY: Follow-up item: "NS(=O)(=O)c1ccc(CN=C(S)NC2CCCCC2)cc1"
RESULT: > 195 µM (not active)

QUERY: Can you handle "c1ccc(-c2nc3ccccc3c3nncn23)cc1" next?
RESULT: > 195 µM (not active)

QUERY: Next record, please: "Cc1ccc(S(=O)(=O)N2CCN(CCNC(=O)C(=O)NCc3ccccc3)CC2)cc1"
RESULT: > 195 µM (not active)

QUERY: Would you mind doing CC1CC(=O)Nc2cc([N+](=O)[O-])ccc2N1 (centres undefined) as well?
RESULT: > 195 µM (not active)

QUERY: Thanks! And "COCCn1c(C)c(C)c2c(NCCc3ccccc3)ncnc21" ?
RESULT: < 0.16 µM (active)

QUERY: Also check "O=C(Oc1c(CN2CCOCC2)cc(Cl)c2cccnc12)c1ccccc1Br"
RESULT: 31.3 µM (active)

QUERY: Same question for "CC(C)CCNC(=O)CN(C(=O)CCC(=O)Nc1nccs1)c1ccc2c(c1)OCCO2" please.
RESULT: 5.9 µM (active)

QUERY: Item: "CC(=O)Nc1nn(C)c2nc(C)cc(C)c12"
RESULT: > 195 µM (not active)

QUERY: Can you check "COc1ccc(NC(C)=O)cc1NC(=O)CN1CCN(CC(=O)Nc2ccccc2Cl)CC1" next?
RESULT: > 195 µM (not active)

QUERY: Try this compound too: "N#C/C(=C/c1cccc(C(F)(F)F)c1)c1nc(CCN2C(=O)c3ccccc3C2=O)cs1"
RESULT: > 195 µM (not active)

QUERY: Another compound: "CCCN1Cc2cccc(C(=O)N3CCN(c4ccc(OC)cc4)CC3)c2C1=O"
RESULT: > 195 µM (not active)

QUERY: Now the compound "Cc1cnc(C(=O)Nc2ccccc2-n2cccc2)cn1"
RESULT: > 195 µM (not active)

QUERY: Input COc1ccc(C(C)N2CC34C=CC(O3)C(C(=O)O)C4C2=O)cc1 (centres undefined)
RESULT: > 195 µM (not active)

###

Biological target: Trace amine-associated receptor 1 (Homo sapiens, UniProt Q96RJ0);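 further: inhibition of calcium response to PEA at EC80 in Galpha16 coupled cells measured by Fluo-8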
Sequence (Q96RJ0 whole entry): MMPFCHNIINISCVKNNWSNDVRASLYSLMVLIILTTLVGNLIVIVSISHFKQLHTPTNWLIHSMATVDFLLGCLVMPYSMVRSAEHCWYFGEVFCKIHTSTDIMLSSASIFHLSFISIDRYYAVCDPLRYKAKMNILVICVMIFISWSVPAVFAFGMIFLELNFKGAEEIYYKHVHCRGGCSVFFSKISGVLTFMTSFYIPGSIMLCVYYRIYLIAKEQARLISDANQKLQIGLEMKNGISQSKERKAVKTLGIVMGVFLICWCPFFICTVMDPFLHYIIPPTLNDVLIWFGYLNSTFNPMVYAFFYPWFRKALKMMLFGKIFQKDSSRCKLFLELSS
Assay: Counterscreen for agonists of the human trace amine associated receptor 1 (hTAAR1): Fluorescence-based cell-based high throughput dose response assay to identify hTAAR1 agonist that also desensitize TAAR1 receptor response.
Assay type: functional
Active and inactive are the calls of the source.
Outcome (select one): t = active, f = inactive

QUERY: Query: recorded result category for "Cn1c(=O)c2[nH]c(Nc3ccccc3)nc2n(C)c1=O" in this test
RESULT: t

QUERY: Also need COc1ccccc1CCNC(=O)C(=O)NCC1OCCN1S(=O)(=O)c1ccc(C)cc1 (centres undefined) , thanks.
RESULT: t

QUERY: How about "COc1ccc(OC(=O)NCCc2ccccc2)cc1" ?
RESULT: f

QUERY: For "O=C(/C=C/C(=O)N1CCc2ccccc2C1)N1CCc2ccccc2C1" then?
RESULT: t

###

Biological target: Corticotropin-releasing factor receptor 2/Corticotropin-releasing factor-binding protein (Homo sapiens, UniProt P24387+Q13324)
Sequence (Q13324 whole entry): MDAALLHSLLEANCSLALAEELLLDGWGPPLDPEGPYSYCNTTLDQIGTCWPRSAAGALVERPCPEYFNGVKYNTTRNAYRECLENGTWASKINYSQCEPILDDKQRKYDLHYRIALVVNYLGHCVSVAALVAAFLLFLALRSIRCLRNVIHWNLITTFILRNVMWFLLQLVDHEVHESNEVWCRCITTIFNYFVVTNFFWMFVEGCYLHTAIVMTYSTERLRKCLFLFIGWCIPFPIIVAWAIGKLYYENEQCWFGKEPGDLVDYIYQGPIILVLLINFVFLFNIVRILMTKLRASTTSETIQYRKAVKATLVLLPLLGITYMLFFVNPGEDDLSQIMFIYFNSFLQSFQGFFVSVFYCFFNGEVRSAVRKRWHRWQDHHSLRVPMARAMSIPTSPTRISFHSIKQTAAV
Sequence (P24387 whole entry): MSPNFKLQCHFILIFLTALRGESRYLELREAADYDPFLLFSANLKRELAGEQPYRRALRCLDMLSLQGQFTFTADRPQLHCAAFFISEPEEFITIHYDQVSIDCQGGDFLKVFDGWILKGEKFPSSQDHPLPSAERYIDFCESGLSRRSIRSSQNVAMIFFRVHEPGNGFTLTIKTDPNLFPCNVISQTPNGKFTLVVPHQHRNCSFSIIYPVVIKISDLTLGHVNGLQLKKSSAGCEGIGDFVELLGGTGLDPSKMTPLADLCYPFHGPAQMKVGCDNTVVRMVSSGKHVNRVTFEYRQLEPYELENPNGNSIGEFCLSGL
Assay: Dose Response confirmation of uHTS hits for small molecule antagonists of the CRF-binding protein and CRF-R2 receptor complex.
Assay type: functional
Conditions: read-out: IC50_Mean
Active and inactive are the calls of the source.
# output must be one of active, inactive

QUERY: Per the assay record, what outcome was assigned to "Cc1ncn(C23CC4CC(CC(C4)C2)C3)n1" ?
RESULT: inactive

QUERY: Same thing, different compound: "NS(=O)(=O)c1ccc(NC(=O)CSc2nnc(COc3ccccc3Cl)n2C2CC2)cc1"
RESULT: inactive

QUERY: // repeat for "O=C(NC(=S)N1CCN(c2ccc(F)cc2)CC1)c1cccs1" and report
RESULT: inactive

QUERY: And the next one, COC(=O)CC1SC(=O)NC1=Nc1ccc(OC)cc1 (stereo not given) ?
RESULT: inactive

QUERY: Then "Cn1c(=O)c(C(=O)NCc2ccccc2Cl)c(O)c2ccccc21" ?
RESULT: inactive

QUERY: Check "NCC[C@H](O)C(=O)N[C@@H]1C[C@H](N)[C@@H](O[C@H]2O[C@H](CN)[C@@H](O)[C@H](O)[C@H]2O)[C@H](O)[C@H]1O[C@H]1O[C@H](CO)[C@@H](O)[C@H](N)[C@H]1O" too.
RESULT: inactive

QUERY: // repeat for "Oc1cc(Cl)c(Cl)c(Cl)c1" and report
RESULT: active

QUERY: What about O=C1C2C3C=CC(C3)C2C(=O)N1CCCO (stereo not given) ?
RESULT: inactive

QUERY: Would you kindly repeat that for C=CCOc1ccc(C2C(C(=O)c3ccco3)=C(O)C(=O)N2c2nnc(C)s2)cc1 (stereo not given) ?
RESULT: inactive

QUERY: Here is the next compound: "Cc1onc(-c2ccccc2Cl)c1C(=O)NCc1ccc(N2CCCC2=O)cc1"
RESULT: inactive

###

Recorded AC50 values (Cytochrome P450 3A4 (Homo sapiens)) are given below.

QUERY: # get_value(readout='AC50', item= "COc1ccccc1/C=C/C(=O)c1ccc(Cl)cc1" )
RESULT: 28.2 µM (inconclusive)

QUERY: Moving on to the next compound: "COC(=O)N1CCC[C@@]2(CCN(C(=O)Nc3ccc(OC)cc3)C2)C1"
RESULT: 10 µM (inconclusive)

QUERY: Query "Cc1noc(C)c1C(=O)N1CCC2(CCCN(Cc3ccccc3)C2)CC1" next
RESULT: 25.1 µM (inconclusive)

QUERY: Try "C[C@@H]1CCCN(CP(=O)(c2ccccc2)c2ccccc2)C1" next.
RESULT: 3.98 µM (inconclusive)

QUERY: "Cc1ccc(C(=O)/C=C/c2c[nH]c3ccccc23)cc1" , same question.
RESULT: 25.1 µM (inconclusive)

QUERY: Consider next the compound "COC(=O)[C@H]1C[C@@H]1[C@H](NC(=O)OCc1ccccc1)c1ccccc1" in the same way.
RESULT: 25.1 µM (inconclusive)

QUERY: Please give the result for "O=C(c1ccncc1)N1CCC[C@@]2(CCN(c3ncccn3)C2)C1" too.
RESULT: 15.8 µM (inconclusive)

QUERY: Again, but for "CC(C)CN1CC[C@@]2(CCCN(C(=O)c3cnccn3)C2)C1"
RESULT: 15.8 µM (inconclusive)

QUERY: Then this compound: "CCC(CC)C(=O)Nc1ccc(C)c(O)c1"
RESULT: 4.47 µM (inconclusive)

QUERY: And "CO[C@@H]1/C=C\CC(=O)N[C@@H](C)C(=O)OC[C@H](NS(=O)(=O)c2ccc(C)cc2)[C@H](C)/C=C\CC(=O)OC[C@H]1C" ?
RESULT: 3.98 µM (inconclusive)

QUERY: And the next one, "CCCCCCN1C=CC(=C/C=C(\C#N)C(=O)OCC)C=C1" ?
RESULT: 15.8 µM (inconclusive)

QUERY: Moving on to "C[C@H](NC[C@H](O)CP(=O)(O)CC1CCCCC1)c1ccc(Cl)c(Cl)c1"
RESULT: 31.6 µM (inconclusive)

###

Tested on: INS1
Assay: beta cell apoptosis inhibitors, cytokine rescue, dose response, luminescence, retest (AID 449756);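 further: cell death triggered by IL-1 beta plus TNF-alpha plus IFN-gamma mixture; protective hits raise ATP signal compared with cytokine alone wells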
Assay type: functional, cell-based
Details: Rattus norvegicus
Activity calls are given as the source filed them.
Choose the fitting class; nothing outside true (1) = active, false (0) = inactive is accepted.

QUERY: Dear colleague, could you share the recorded outcome for "Cc1sc2cc3c(c(C(=O)c4ccccc4)[n+]2c1C)-c1cccc2cccc-3c12" when you have a moment?
RESULT: true (1)

QUERY: What about this compound? "COC(=O)C1=C(C)N(Cc2ccccc2)C(NCc2cccc(C(F)(F)F)c2)=N[C@H]1c1cccc(C(F)(F)F)c1"
RESULT: true (1)

QUERY: Entry to check: "COc1cccc(/C=N/NC(=O)C(=O)Nc2ccccc2OC(F)(F)C(F)F)c1O"
RESULT: true (1)

QUERY: Repeat with "CN(C)c1cc[n+](Cc2c(Cl)cccc2Cl)cc1"
RESULT: true (1)

QUERY: Now consider "COc1ccccc1NCC(=O)N1CCN(S(=O)(=O)c2ccccc2)CC1" .
RESULT: false (0)

###

Target: Protein skinhead-1 (Caenorhabditis elegans)
Sequence (P34707 whole entry): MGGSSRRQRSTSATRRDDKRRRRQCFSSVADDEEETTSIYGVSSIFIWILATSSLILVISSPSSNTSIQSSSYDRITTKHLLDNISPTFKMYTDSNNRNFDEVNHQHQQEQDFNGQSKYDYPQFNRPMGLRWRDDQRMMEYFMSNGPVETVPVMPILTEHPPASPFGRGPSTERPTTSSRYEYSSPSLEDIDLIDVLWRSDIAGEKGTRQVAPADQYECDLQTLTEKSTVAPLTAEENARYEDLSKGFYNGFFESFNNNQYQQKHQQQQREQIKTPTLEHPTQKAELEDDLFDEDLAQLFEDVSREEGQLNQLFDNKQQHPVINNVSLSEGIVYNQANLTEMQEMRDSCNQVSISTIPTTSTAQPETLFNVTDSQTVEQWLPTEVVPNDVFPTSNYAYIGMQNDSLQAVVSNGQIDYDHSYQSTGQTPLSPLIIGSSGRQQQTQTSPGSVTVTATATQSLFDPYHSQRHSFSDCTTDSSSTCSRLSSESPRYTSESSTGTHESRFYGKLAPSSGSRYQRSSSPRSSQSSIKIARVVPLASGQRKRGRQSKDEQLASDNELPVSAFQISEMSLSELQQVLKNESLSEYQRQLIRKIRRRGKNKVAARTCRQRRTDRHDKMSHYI
Format: functional
The source made the active and inactive calls.
Answer with one of the outcomes given here: active, inactive

QUERY: Record request — test call for "CC(C)(C)NC(=O)CN(C(=O)CCN1CCCc2ccccc21)C(C)(C)C"
RESULT: inactive

QUERY: Next compound up: "O=C(CSc1nnnn1C1CCCCC1)Nc1cccc(NC(=O)c2ccco2)c1"
RESULT: inactive

QUERY: // same read-out, input: "Cc1ccc(Nc2nc(-c3cccs3)cs2)nc1"
RESULT: inactive

QUERY: "CCSc1ncc(/C=N/Nc2ccccc2)n1C" , same question.
RESULT: inactive

QUERY: Queued: "CN(C(=O)c1ccco1)c1nc(-c2ccccc2)cs1"
RESULT: inactive

QUERY: Ok, now "CN(CC(=O)Nc1nc2ccccc2s1)S(=O)(=O)c1ccc(Cl)cc1"
RESULT: inactive

QUERY: Can you handle "O=C(/C=C/Nc1ccc(F)c(F)c1)c1cccs1" next?
RESULT: active

QUERY: # iterate: "Cc1ccccc1-n1c(SCC(=O)O)nc2sc3c(c2c1=O)CCCC3"
RESULT: inactive
